The molecules listed here are annotated with their half-life.
Assay: Half life in plasma was determined at the peroral dose of 10 mg/kg in diet-induced obese (DIO) mice
Assay type: ADME, organism-based
Parameters: dose 10 mg/kg, route oral
Settings: mouse, po

molecule: Nc1ccc2cccc(OC3CCN(c4ccc5c(c4)OC(F)(F)O5)C3)c2n1 (configuration not stated)
half-life / h: 4.6
--
molecule: Nc1ccc2cccc(O[C@H]3CCN(Cc4ccc5c(c4)OCO5)C3)c2n1
half-life / h: 6.5

---

Reported pIC50 values for a set of compounds
Target: Melanin-concentrating hormone receptor 1 (Homo sapiens)
Sequence (Q99705 whole entry): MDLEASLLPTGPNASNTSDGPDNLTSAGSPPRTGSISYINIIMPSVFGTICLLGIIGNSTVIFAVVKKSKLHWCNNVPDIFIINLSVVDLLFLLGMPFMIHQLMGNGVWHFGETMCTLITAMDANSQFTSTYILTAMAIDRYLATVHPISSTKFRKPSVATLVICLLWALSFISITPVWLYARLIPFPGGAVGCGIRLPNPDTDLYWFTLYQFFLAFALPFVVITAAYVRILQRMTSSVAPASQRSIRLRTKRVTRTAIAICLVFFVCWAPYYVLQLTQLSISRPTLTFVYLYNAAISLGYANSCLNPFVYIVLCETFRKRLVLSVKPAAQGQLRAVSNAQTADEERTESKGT
Assay: Concentration required to inhibit binding of [125I]MCH radioligand to human Melanin-concentrating hormone receptor 1 in IMR-32 I3.4.2 cell membranes
pIC50: −log10 of the molar value.

compound: CC(C)Cc1ccc(N2CCC(Oc3cccc4ccc(NCC5CC5)nc34)C2)cc1 (stereo not drawn)
pIC50: 6.83
--
compound: CC(Cc1ccc2c(c1)OCO2)N1CCC(Oc2cccc3ccc(N)nc23)C1 (stereo not drawn)
pIC50: 8.66
--
compound: Nc1ccc2cccc(O[C@@H]3CCN(Cc4ccc5c(c4)OCO5)C3)c2n1
pIC50: 7.15
--
compound: CCC(c1ccccc1)N1CCC(Oc2cccc3ccc(N)nc23)C1 (stereo not drawn)
pIC50: 7.69
--
compound: Nc1ccc2cccc(O[C@H]3CCN(Cc4ccccc4)C3)c2n1
pIC50: 6.92
--
compound: CC(C)Cc1ccc(N2CCC(Oc3cccc4ccc(NCc5ccc(-c6cccc(C(F)(F)F)c6)o5)nc34)C2)cc1 (stereo not drawn)
pIC50: 7.39
--
compound: Nc1ccc2cccc(O[C@@H]3CCN(c4ccc5c(c4)OC(F)(F)O5)C3)c2n1
pIC50: 7.41
--
compound: CC(=O)Nc1ccc(CN2CC[C@H](Oc3cccc4ccc(N)nc34)C2)cc1
pIC50: 7.05

FYI, the data here is from ChEMBL document CHEMBL1137036.
